Measured ARRHYTHMIA (number of animals) values are reported for all entries that follow.
Tested on: DOCA/saline pre-treated rats challenged with isoproterenol
Assay explanation: Prevention of isoproterenol-induced arrhythmia and mortality in DOCA/saline pre-treated rats
Assay type: in vivo, rat
Experimental parameters: dose 115 μmol/kg s.c., 20 min before isoproterenol 150 μg/kg s.c.
API note: the answer field is a bare number with no unit suffix.

Molecule | ARRHYTHMIA (number of animals)
C(CNC1CCNCC1)CNC1CCNCC1 | 5
c1cc(NCCCNc2ccncc2)ccn1 | 2

The molecule NCCCCN [Putrescine(4), Putrescine, reference compound] showed ARRHYTHMIA (number of animals) equal to 5

The molecule c1cc(CNCCCCNCc2ccncc2)ccn1 showed ARRHYTHMIA (number of animals) equal to 5

The molecule CCNCCCCNCCCCNCCCCNCC showed ARRHYTHMIA (number of animals) equal to 5

====

Measured % SURVIVAL values are reported for all entries that follow.
Test system: DOCA/saline pre-treated rats challenged with isoproterenol
Assay explanation: Prevention of isoproterenol-induced arrhythmia and mortality in DOCA/saline pre-treated rats
Format: in vivo, rat
Experimental parameters: dose 115 μmol/kg s.c., 20 min before isoproterenol 150 μg/kg s.c.
Form entry: value (%) — number only.

Sample records with % SURVIVAL:
Compound | Endpoint value
c1cc(CNCCCCNCc2ccncc2)ccn1 | 0
CCNCCCCCCCCCNCC | 0
CCNCCCCNCCCCNCCCCNCC | 0
c1cc(NCCCCNc2ccncc2)ccn1 | 60
NCCCCN [Putrescine(4), Putrescine, reference compound] | 0

The compound FC(F)(F)CNCCCNCCCCNCCCNCC(F)(F)F showed % SURVIVAL equal to 40

The compound c1cc(NCCCNc2ccncc2)ccn1 showed % SURVIVAL equal to 100

The compound CCNCCCNCCCCNCCCNCC showed % SURVIVAL equal to 0

The compound C(CNC1CCNCC1)CNC1CCNCC1 showed % SURVIVAL equal to 0

====

Test system: DOCA/saline pre-treated rats challenged with isoproterenol
Assay explanation: Prevention of isoproterenol-induced arrhythmia and mortality in DOCA/saline pre-treated rats
Format: in vivo, rat
Experimental parameters: dose 115 μmol/kg s.c., 20 min before isoproterenol 150 μg/kg s.c.
Parameter: ARRHYTHMIA (number of animals)
API note: the answer field is a bare number with no unit suffix.

Sample records with ARRHYTHMIA (number of animals):
Compound structure | ARRHYTHMIA (number of animals)
CCNCCCNCCCCNCCCNCC | 5
CCNCCCCCCCCCNCC | 5
c1cc(NCCCCNc2ccncc2)ccn1 | 2

Moving on to another compound below.
The compound FC(F)(F)CNCCCNCCCCNCCCNCC(F)(F)F showed ARRHYTHMIA (number of animals) equal to 7
